test system: H-MEC-1; experiment: Inhibition of cells growth by colorimetric assay (SRB), H-MEC-1; assay type: cell-based; settings: H-MEC-1, 48 hours exposure, SRB
outcome_measure: TGI (Molar)
One number for each entry, in Molar.

Take a look at these entries with their results.
What does the record list as TGI for COc1c(C)cc2c(c1O)[C@@H]1C3[C@@H]4SC[C@]5(NC(C)Cc6c5[nH]c5ccc(F)cc65)C(=O)COC[C@@H](c5c6c(c(C)c(OC(C)=O)c54)OCO6)N3[C@@H](O)[C@H](C2)N1C (stereo partly drawn) [Compound 41] ?
4.08E−08

What does the record list as TGI for COc1c(C)cc2c(c1O)[C@@H]1C3[C@@H]4SC[C@]5(C(=O)COC[C@@H](c6c7c(c(C)c(OC(C)=O)c64)OCO7)N3[C@@H](O)[C@H](C2)N1C)c1[nH]c2ccccc2c1CCN5C (stereo partly drawn) [Compound 40] ?
5.31E−09

What does the record list as TGI for COc1c(C)cc2c(c1O)[C@@H]1C3[C@@H]4SC[C@]5(NC(C)Cc6c5[nH]c5ccc(F)cc65)C(=O)COC[C@@H](c5c6c(c(C)c(OC(C)=O)c54)OCO6)N3[C@@H](O)[C@H](C2)N1C (stereo partly drawn) [Compound 42] ?
2.47E−07

What does the record list as TGI for COc1c(C)cc2c(c1O)[C@@H]1C3[C@@H]4SC[C@]5(NC(C)Cc6c5[nH]c5ccc(O)cc65)C(=O)COC[C@@H](c5c6c(c(C)c(OC(C)=O)c54)OCO6)N3[C@@H](O)[C@H](C2)N1C (stereo partly drawn) [Compound 38] ?
8.93E−09

What does the record list as TGI for COc1c(C)cc2c(c1O)[C@@H]1C3[C@@H]4SC[C@]5(C(=O)COC[C@@H](c6c7c(c(C)c(OC(C)=O)c64)OCO7)N3[C@@H](O)[C@H](C2)N1C)c1[nH]c2ccccc2c1CCN5C (stereo partly drawn) [Compound 39] ?
1.46E−06

Continuing:
What does the record list as TGI for COc1c(C)cc2c(c1O)[C@@H]1C3[C@@H]4SC[C@]5(NC(C)Cc6c5[nH]c5ccc(O)cc65)C(=O)COC[C@@H](c5c6c(c(C)c(OC(C)=O)c54)OCO6)N3[C@@H](O)[C@H](C2)N1C (stereo partly drawn) [Compound 37] ?
3.58E−08

Value source: patent US7763615B2
